B1: GLTSCR2 (parent)
chain: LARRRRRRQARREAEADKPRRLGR

# Variants of: B1
# ASSAY_DETAILS: protein stability index of a GFP-peptide fusion (GPS, HEK-293T) (PSI 1-6); higher = more stable;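 note: lentivirally expressed fusions sorted by FACS into six bins by GFP to DsRed ratio, PSI derived from sequencing read proportions per bin multiplied by bin number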
# CONDITION_SET: c terminus: a fixed tail appended
MEASURED_ENDPOINT: protein stability index

INSERT INTO measurements (sequence_change, recorded_result) VALUES
  ('E13N', 4.59),
  ('R8Y', 4.15),
  ('A14D', 4.49),
  ('R6S', 4.86),
  ('R24Y', 4.8),
  ('K18G', 4.91),
  ('Q9E', 4.38),
  ('R7L', 4.76),
  ('R4F', 3.75),
  ('R12L', 3.76),
  ('R4A', 4.39),
  ('R11P', 4.62),
  ('R3E', 5.08),
  ('D17G', 4.24),
  ('E15D', 4.55),
  ('R6L', 4.6),
  ('R6E', 4.03),
  ('A14T', 4.97),
  ('R12V', 5.34),
  ('P19T', 4.39),
  ('G23N', 4.64),
  ('R4K', 3.13),
  ('A10Q', 4.95),
  ('R6N', 5.07),
  ('P19L', 3.91),
  ('R5C', 4.21),
  ('R11K', 4.52),
  ('R8N', 4.48),
  ('A16H', 5.25),
  ('R24V', 4.42),
  ('R5K', 4.54),
  ('R8D', 4.83),
  ('R20I', 4.36),
  ('P19G', 4.57),
  ('R21H', 3.99),
  ('R12T', 4.98),
  ('R5S', 4.42),
  ('R20G', 4.91),
  ('R3I', 4.36),
  ('A16R', 3.96),
  ('R4I', 4.46),
  ('R24F', 4.3),
  ('P19H', 4.09),
  ('R8F', 4.64),
  ('K18Q', 4.97),
  ('E13Q', 4.88),
  ('K18D', 4.78),
  ('R7T', 4.76),
  ('R7Y', 4.64),
  ('R21D', 4.65),
  ('R8M', 4.98),
  ('E13T', 4.83),
  ('R24W', 3.84),
  ('A10S', 4.66),
  ('A10P', 5.19),
  ('R8A', 4.98),
  ('R20W', 4.41),
  ('R4W', 3.11),
  ('G23S', 5.18),
  ('A2Q', 5.01),
  ('R12A', 4.71),
  ('R3C', 4.74),
  ('P19Q', 4.19),
  ('R8G', 4.25),
  ('E15M', 4.72),
  ('L1G', 5.13),
  ('R24C', 4.44),
  ('A16P', 4.61),
  ('L1T', 5.33),
  ('A10C', 5.01),
  ('R4H', 4.35),
  ('R7I', 4.41),
  ('R3Y', 3.84),
  ('D17K', 4.99),
  ('L1C', 5.39),
  ('R11E', 4.87),
  ('E13G', 5.01),
  ('R8V', 4.18),
  ('R8P', 4.44),
  ('E15Q', 4.52),
  ('D17Q', 4.53),
  ('R24A', 4.72),
  ('A14G', 3.91),
  ('A2K', 4.42),
  ('A16I', 4.22),
  ('R7H', 4.73),
  ('A14R', 4.52),
  ('L1V', 4.98);

Data origin, for the record: the supplement of paper PMC10567573
